Values were extracted from the supplement of paper PMC6897291.

- System: RIVA
- protocol.summary: growth inhibition by drug alone (1 - RLU/untreated control) (fraction); higher = stronger inhibition
- cond: 100 nM; time (day): 3; 177Lu-lilotomab satetraxetan 0 ug/ml
Structures can show the parent of a compound that is named as a salt.
measured.attribute: growth inhibition by drug alone

molecule	recorded.result
CC1(C)CCC(c2ccc(Cl)cc2)=C(CN2CCN(c3ccc(C(=O)NS(=O)(=O)c4ccc(N[C@H](CCN5CCOCC5)CSc5ccccc5)c(S(=O)(=O)C(F)(F)F)c4)cc3)CC2)C1	0.977
CC[C@H]1OC(=O)[C@H](C)[C@@H](O[C@H]2C[C@@](C)(OC)[C@@H](O)[C@H](C)O2)[C@H](C)[C@@H](O[C@@H]2O[C@H](C)C[C@H](N(C)C)[C@H]2O)[C@](C)(O)C[C@@H](C)CN(C)[C@H](C)[C@@H](O)[C@]1(C)O [Azithromycin (Zithromax)]	0.0514
CNCc1ccc(-c2[nH]c3cc(F)cc4c3c2CCNC4=O)cc1	-0.0509
CC(=O)[C@]1(O)Cc2c(O)c3c(c(O)c2[C@@H](O[C@H]2C[C@H](N)[C@H](O)[C@H](C)O2)C1)C(=O)c1ccccc1C3=O [Idarubicin HCl]	0.781
Clc1ccc(Nc2nnc(Cc3ccncc3)c3ccccc23)cc1 [Vatalanib dihydrochloride (PTK787)]	-0.0903
CN(C)CCOc1ccc(-c2nc(-c3ccncc3)c(-c3ccc4c(c3)CC/C4=N\O)[nH]2)cc1	-0.788

* * *

- Tested on: U-2932
- protocol.summary: growth inhibition by drug plus 177Lu-lilotomab satetraxetan (1 - RLU/untreated control) (fraction); higher = stronger inhibition
- cond: 10 nM; time (day): 6; 177Lu-lilotomab satetraxetan 1 ug/ml
Structures can show the parent of a compound that is named as a salt.
measured.attribute: growth inhibition by drug plus 177Lu-lilotomab satetraxetan

compound	recorded.result
C[C@]12CC[C@@H]3c4ccc(O)cc4CC[C@H]3[C@@H]1CCC2=O	0.0988
COc1cc2ncnc(Nc3ccc(F)c(Cl)c3)c2cc1OCCCN1CCOCC1	0.0384
Cc1[nH]c(/C=C2\C(=O)Nc3ccc(S(=O)(=O)Cc4c(Cl)cccc4Cl)cc32)c(C)c1C(=O)N1CCC[C@@H]1CN1CCCC1	0.0103
N#Cc1c(O)c2c(-c3ccc(-c4ccccc4O)cc3)csc2[nH]c1=O	0.108
Oc1cccc(-c2nc(N3CCOCC3)c3oc4ncccc4c3n2)c1	0.231
CN1CCN(c2cccc(Nc3nc4c(-c5ccc(S(C)(=O)=O)cc5)cccn4n3)c2)CC1	0.17
CN(C)CCOc1ccc(-c2nc(-c3ccncc3)c(-c3ccc4c(c3)CC/C4=N\O)[nH]2)cc1	0.196
COC1=CC(c2cc3ccccc3[nH]2)=N/C1=C\c1[nH]c(C)cc1C [Obatoclax mesylate (GX15-070)]	0.144

* * *

- Test system: RIVA
- protocol.summary: growth inhibition by drug alone (1 - RLU/untreated control) (fraction); higher = stronger inhibition
- cond: 10 nM; time (day): 5; 177Lu-lilotomab satetraxetan 0 ug/ml
Criterion: growth inhibition by drug alone meeting or surpassing -0.1. Met: class 1. Not met: class 0.

compound	system.name	label.class
O=C1C(Cl)=C(NCCN2CCOCC2)C(=O)c2ncccc21	RIVA	class 1
CCc1cc(Nc2nccc(-c3c(-c4ccc(OC)c(C(=O)Nc5c(F)cccc5F)c4)nc4ccccn34)n2)c(OC)cc1N1CCC(N2CCN(S(C)(=O)=O)CC2)CC1	RIVA	class 0
COc1c(C)c2c(c(O)c1C/C=C(\C)CCC(=O)O)C(=O)OC2 [Mycophenolic (Mycophenolate)]	RIVA	class 1
OCCn1cc(-c2cnc3nnn(Cc4ccc5ncccc5c4)c3n2)cn1	RIVA	class 1
C[C@H](NC(=O)Cc1cc(F)cc(F)c1)C(=O)N[C@H](C(=O)OC(C)(C)C)c1ccccc1	RIVA	class 0
Cc1cn(-c2cc(NC(=O)c3ccc(C)c(Nc4nccc(-c5cccnc5)n4)c3)cc(C(F)(F)F)c2)cn1	RIVA	class 0
NC(=O)Nc1cc(-c2cccc(F)c2)sc1C(=O)N[C@H]1CCCNC1	RIVA	class 1
CC(C)c1ccc(Cn2ccc3c4c(N)nc(NC5CC5)nc4ccc32)cc1	RIVA	class 1
O=C(CCCCCCC(=O)Nc1cccnc1)NO [Pyroxamide]	RIVA	class 0
O=C(O)c1ccc(-c2c[nH]c3ncc(-c4ccccc4)cc23)cc1C1CCCC1	RIVA	class 0
COc1ccc(S(=O)(=O)Nc2cccnc2Nc2ccc(O)cc2)cc1	RIVA	class 0
CCOC(=O)C1=C[C@]2(CC)CCCN3CCc4c(n1c1ccccc41)[C@@H]32	RIVA	class 0
CCCCCOC(=O)Nc1nc(=O)n([C@@H]2O[C@H](C)[C@@H](O)[C@H]2O)cc1F	RIVA	class 0
COc1cc2c(N3CCN(C(=O)Nc4ccc(OC(C)C)cc4)CC3)ncnc2cc1OCCCN1CCCCC1	RIVA	class 0
C=CC(=O)Nc1cccc(Oc2nc(Nc3ccc(N4CCN(C)CC4)cc3OC)ncc2Cl)c1	RIVA	class 0
CN1CCN(c2ccc3nc(-c4c(N)c5c(F)cccc5[nH]c4=O)[nH]c3c2)CC1	RIVA	class 1

* * *

- Test system: RIVA
- protocol.summary: growth inhibition by drug plus 177Lu-lilotomab satetraxetan (1 - RLU/untreated control) (fraction); higher = stronger inhibition
- cond: 100 nM; time (day): 3; 177Lu-lilotomab satetraxetan 0.5 ug/ml
Where a name gives a salt, the structure may show the parent alone.
Each record gets a class by growth inhibition by drug plus 177Lu-lilotomab satetraxetan: category 1: < 0.4; category 2: ≥ 0.4 and < 0.6; category 3: ≥ 0.6

compound	label.class
Oc1nc(-c2ccc(C(F)(F)F)cc2)nc2c1CSCC2	category 2
CC(=O)O[C@]1(C(C)=O)CC[C@H]2[C@@H]3C=C(C)C4=CC(=O)CC[C@]4(C)[C@H]3CC[C@@]21C [Megestrol Acetate]	category 2
CC(C)C[C@@H](C(=O)N[C@H](C(=O)OC1CCCC1)c1ccccc1)[C@H](O)C(=O)NO	category 2
CC[C@@H]1C(=O)N(C)c2cnc(Nc3ccc(C(=O)N[C@H]4CC[C@H](N5CCN(CC6CC6)CC5)CC4)cc3OC)nc2N1C(C)C	category 3
CC(=O)Nc1cccc(-n2c(=O)n(C3CC3)c(=O)c3c(Nc4ccc(I)cc4F)n(C)c(=O)c(C)c32)c1	category 2
CC(C)(C)c1cc(NC(=O)Nc2ccc(-c3cn4c(n3)sc3cc(OCCN5CCOCC5)ccc34)cc2)no1	category 1
CCOc1ccc(Nc2nc(-c3c(C)nc4ccccn34)cs2)cc1	category 3
CC(C)(C)c1[nH]cnc1/C=c1\[nH]c(=O)/c(=C/c2ccccc2)[nH]c1=O	category 3
Nc1nc2[nH]cc(CCc3ccc(C(=O)N[C@@H](CCC(=O)O)C(=O)O)cc3)c2c(=O)[nH]1	category 1
COc1cc(OC2CCN(C)CC2)ccc1Nc1ncc2c(n1)n(C1CCCC1)c(=O)n2C	category 1
Cc1ccc(C(=O)N(CCCN)[C@@H](c2nc3cc(Cl)ccc3c(=O)n2Cc2ccccc2)C(C)C)cc1	category 3
Cn1cnc([N+](=O)[O-])c1Sc1ncnc2[nH]cnc12	category 2
O=C1CN2Cc3c(ccc(Cl)c3Cl)N=C2N1 [Anagrelide hydrochloride]	category 2
COC(=O)C1=C(C)NC(C)=C(C(=O)OCCCN2CCC(c3ccccc3)(c3ccccc3)CC2)[C@H]1c1cccc([N+](=O)[O-])c1 [S-(+)-Niguldipine hydrochloride]	category 2
CC(C)(C#N)c1cc(Cn2cncn2)cc(C(C)(C)C#N)c1	category 2
O=C(/C=C/c1cccc(S(=O)(=O)Nc2ccccc2)c1)NO	category 3

* * *

- Test system: U-2932
- protocol.summary: growth inhibition by drug plus 177Lu-lilotomab satetraxetan (1 - RLU/untreated control) (fraction); higher = stronger inhibition
- cond: 10 nM; time (day): 4; 177Lu-lilotomab satetraxetan 1 ug/ml
Each entry below carries its reported growth inhibition by drug plus 177Lu-lilotomab satetraxetan.
measured.attribute: growth inhibition by drug plus 177Lu-lilotomab satetraxetan

compound	system.name	recorded.result
Nc1nccc(Oc2ccc(NC(=O)c3c[nH]cc(-c4ccc(F)cc4)c3=O)cc2F)c1Cl	U-2932	-0.0231
Cc1cccc(-c2[nH]c(C(C)(C)C)nc2-c2ccc3nccnc3c2)n1	U-2932	0.108
Nc1ncn([C@H]2C[C@H](O)[C@@H](CO)O2)c(=O)n1	U-2932	0.11
CO[C@@H](C(=O)N1Cc2[nH]nc(NC(=O)c3ccc(N4CCN(C)CC4)cc3)c2C1)c1ccccc1	U-2932	0.0748
COC(=O)c1ccc2c(C(=Nc3ccc(N(C)C(=O)CN4CCN(C)CC4)cc3)c3ccccc3)c(O)[nH]c2c1	U-2932	-0.0397
CNC(=O)c1ccc(N2C(=S)N(c3ccc(C#N)c(C(F)(F)F)c3)C(=O)C2(C)C)cc1F [MDV3100 (Enzalutamide)]	U-2932	0.0789
Cc1nnc(C(C)C)n1C1C[C@H]2CC[C@@H](C1)N2CC[C@H](NC(=O)C1CCC(F)(F)CC1)c1ccccc1 (stereo in doubt)	U-2932	0.146
CC(=O)O[C@@]12CO[C@@H]1C[C@H](O)[C@@]1(C)C(=O)[C@H](O)C3=C(C)[C@@H](OC(=O)[C@H](O)[C@@H](NC(=O)OC(C)(C)C)c4ccccc4)C[C@@](O)([C@@H](OC(=O)c4ccccc4)[C@H]21)C3(C)C	U-2932	0.971
CC(C)C[C@H](NC(=O)[C@H](Cc1ccccc1)NC(=O)c1cnccn1)B(O)O	U-2932	0.967
COc1ccccc1OCC(O)CN1CCN(CC(=O)Nc2c(C)cccc2C)CC1 (stereo not given) [Ranolazine (Ranexa)]	U-2932	0.00637
CCOc1cc2ncc(C#N)c(Nc3ccc(F)c(Cl)c3)c2cc1NC(=O)/C=C/CN(C)C [Pelitinib (EKB-569)]	U-2932	-0.0187
CN[C@@H](C)C(=O)N[C@H]1CN(C(=O)CC(C)C)CC[C@H]2CC[C@@H](C(=O)NC(c3ccccc3)c3ccccc3)N2C1=O	U-2932	-0.00591
Cc1ccnc(NS(=O)(=O)c2ccc(NC(=O)Nc3ccc(S(=O)(=O)Nc4nccc(C)n4)cc3)cc2)n1	U-2932	0.0885
Nc1nc2[nH]cc(CCc3ccc(C(=O)N[C@@H](CCC(=O)O)C(=O)O)cc3)c2c(=O)[nH]1	U-2932	-0.0226
Cn1cnc([N+](=O)[O-])c1Sc1ncnc2[nH]cnc12	U-2932	0.0643
